TEST_SYSTEM: UniProtKB O00329
Sequence (O00329 whole entry, canonical isoform): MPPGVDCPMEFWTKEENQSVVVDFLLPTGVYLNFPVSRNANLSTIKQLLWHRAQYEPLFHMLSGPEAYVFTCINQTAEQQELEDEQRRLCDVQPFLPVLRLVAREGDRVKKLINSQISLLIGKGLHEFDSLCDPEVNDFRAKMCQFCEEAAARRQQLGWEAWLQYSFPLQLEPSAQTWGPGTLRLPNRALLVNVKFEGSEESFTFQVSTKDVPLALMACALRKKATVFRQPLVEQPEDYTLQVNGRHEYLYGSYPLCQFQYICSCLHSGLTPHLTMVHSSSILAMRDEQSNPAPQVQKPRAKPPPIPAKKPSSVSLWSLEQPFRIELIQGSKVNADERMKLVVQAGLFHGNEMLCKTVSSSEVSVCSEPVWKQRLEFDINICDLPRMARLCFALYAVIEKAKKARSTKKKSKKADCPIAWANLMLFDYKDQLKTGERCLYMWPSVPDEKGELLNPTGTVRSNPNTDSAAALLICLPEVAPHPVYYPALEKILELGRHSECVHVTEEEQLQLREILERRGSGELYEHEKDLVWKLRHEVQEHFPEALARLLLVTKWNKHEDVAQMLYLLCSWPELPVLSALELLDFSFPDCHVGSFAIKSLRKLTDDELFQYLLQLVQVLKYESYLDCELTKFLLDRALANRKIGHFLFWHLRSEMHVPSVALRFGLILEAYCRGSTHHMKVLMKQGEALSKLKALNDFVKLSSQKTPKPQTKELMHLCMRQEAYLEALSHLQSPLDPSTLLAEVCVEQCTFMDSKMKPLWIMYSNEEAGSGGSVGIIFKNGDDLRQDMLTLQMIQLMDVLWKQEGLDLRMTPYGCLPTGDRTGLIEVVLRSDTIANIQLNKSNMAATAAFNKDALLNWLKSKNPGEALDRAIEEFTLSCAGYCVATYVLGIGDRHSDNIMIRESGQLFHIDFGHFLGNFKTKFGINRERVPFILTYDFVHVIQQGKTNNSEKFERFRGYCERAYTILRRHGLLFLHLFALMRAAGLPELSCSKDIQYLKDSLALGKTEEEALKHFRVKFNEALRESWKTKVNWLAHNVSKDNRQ
Sequence (P27986 whole entry partner, canonical isoform): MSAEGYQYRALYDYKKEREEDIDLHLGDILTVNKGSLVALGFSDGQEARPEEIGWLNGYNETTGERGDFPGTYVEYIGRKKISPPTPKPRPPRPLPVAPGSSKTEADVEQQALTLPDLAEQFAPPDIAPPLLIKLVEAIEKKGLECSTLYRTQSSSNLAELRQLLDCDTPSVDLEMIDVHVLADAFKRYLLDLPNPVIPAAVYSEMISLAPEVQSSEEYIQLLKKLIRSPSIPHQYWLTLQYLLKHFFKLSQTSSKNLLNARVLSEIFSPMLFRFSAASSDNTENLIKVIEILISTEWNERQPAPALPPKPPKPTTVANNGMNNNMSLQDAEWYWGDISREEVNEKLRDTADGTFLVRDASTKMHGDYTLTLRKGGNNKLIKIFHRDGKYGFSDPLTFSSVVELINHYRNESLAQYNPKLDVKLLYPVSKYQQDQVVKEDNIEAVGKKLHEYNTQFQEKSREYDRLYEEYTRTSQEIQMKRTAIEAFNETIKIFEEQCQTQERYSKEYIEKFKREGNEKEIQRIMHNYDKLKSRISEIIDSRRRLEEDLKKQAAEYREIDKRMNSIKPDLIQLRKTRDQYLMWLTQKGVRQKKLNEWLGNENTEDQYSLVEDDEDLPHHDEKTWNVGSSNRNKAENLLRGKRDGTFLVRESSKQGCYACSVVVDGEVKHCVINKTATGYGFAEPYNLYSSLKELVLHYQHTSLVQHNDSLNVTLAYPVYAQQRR
PROTOCOL_DETAILS: HTRF PI3K biochemical assay, delta isoform
MEASUREMENT_CONTEXT: 0.3 nM enzyme, 100 uM ATP, 50 uM PIP2; form screened (neutral or TFA salt)
pIC50: −log10 of the molar value.
ASSAY_ENDPOINT: pIC50

Record excerpt, results attached:
[
  {
    "COMPOUND": "CCn1c(-c2cnc(C)nc2)nc2c(-c3ccc4c(c3)C(C)(NCC(C)C)C(=O)N4)ncnc21 (single isomer, unassigned) [Compound 2-66]",
    "TEST_SYSTEM": "UniProtKB O00329",
    "pIC50": 9.00
  },
  {
    "COMPOUND": "CCn1c(-c2cnc(C)nc2)nc2c(-c3ccc4c(c3)C(C)(N[C@@H](C)C3CCC3)C(=O)N4)ncnc21 (mixture of isomers)",
    "TEST_SYSTEM": "UniProtKB O00329",
    "pIC50": 7.89
  },
  {
    "COMPOUND": "CCn1c(-c2cnc(C)nc2)nc2c(-c3ccc4c(c3)C(C)(NC[C@@H]3CCCO3)C(=O)N4)ncnc21 (mixture of isomers)",
    "TEST_SYSTEM": "UniProtKB O00329",
    "pIC50": 7.66
  }
]

a: CCn1c(-c2cnc(C)nc2)nc2c(-c3ccc4c(c3)C(C)(OCC(C)(C)F)C(=O)N4)ncnc21 (single isomer, unassigned) [Compound 2-56]
b: CCn1c(-c2cnc(C)nc2)nc2c(-c3ccc4c(c3)C(C)(N[C@H]3C[C@H](OC)C3)C(=O)N4)ncnc21 (single isomer, unassigned) [Compound 2-82]
Given the listed items, does a or b have the lesser reported pIC50? Label of pick, please.
b
(b: 5.80, a: 8.52)

A: CCn1c(-c2cnc(C)nc2)nc2c(-c3ccc4c(c3)C(C)(N3CC5(CCO5)C3)C(=O)N4)ncnc21 (single isomer, unassigned) [Compound 2-7]
B: CCn1c(-c2cnc(C)nc2)nc2c(-c3ccc4c(c3)C(C)(N3CC(C)(C#N)C3)C(=O)N4)ncnc21 (single isomer, unassigned) [Compound 2-6]
C: CCn1c(-c2cnc(C)nc2)nc2c(-c3ccc4c(c3)C(Cc3ccccc3)OC(=O)N4)ncnc21 (single isomer, unassigned) [Compound 4-1]
D: CCN1C(=O)C2(CCCN2C(=O)C2CC2)c2cc(-c3ncnc4c3nc(-c3cnc(C)nc3)n4CC)ccc21 (single isomer, unassigned)
E: CCN1CCCC12C(=O)Nc1ccc(-c3ncnc4c3nc(-c3cnc(C)nc3)n4CC)cc12 (single isomer, unassigned) [Compound 3-26]
Arrange by pIC50, high to low. To answer, write out the labels according to the requested order.
B, D, A, E, C
(B: 8.52, D: 8.30, A: 8.10, E: 7.54, C: 7.01)

I: CCn1c(-c2cnc(C)nc2)nc2c(-c3ccc4c(c3)C(C)(N3C[C@@H](C)O[C@@H](C)C3)C(=O)N4)ncnc21 (single isomer, unassigned) [Compound 2-3]
II: CCn1c(-c2cnc(C)nc2)nc2c(-c3ccc4c(c3)C(C)(N3C[C@H]5C[C@@H]3CO5)C(=O)N4)ncnc21 (mixture of isomers)
Between the entries labelled I and II , which has a larger pIC50 value on record? Write down the label of the entry you select.
II
(II: 7.24, I: 6.84)
